# Target system: Estrogen receptor (Homo sapiens)
# Test protocol: qHTS assay to identify small molecule antagonists of the estrogen receptor alpha (ER-alpha) signaling pathway using the BG1 cell line in the presence of 0.1 nM 17-beta-estradiol (AID 1259244); also: nearly all actives have a fitted effect of over 50% in size
# Conditions: VM7Luc4E2 (BG1) ERE-luciferase, antagonist mode, 0.1 nM E2, 22 h; series mostly up to 92.4 µM
Inconclusive results are not listed. Calls of active or inactive are those of the source. Calls follow the shape of the dose curve; as a rule, active = well fitted inhibition curve with a large enough effect in the repeat runs; inconclusive = weak or mixed curves; inactive = no such curve, though single readings can be large or run the other way.
One label from this list, please: active, inactive

Hi team, can someone confirm the assay call for CC(C(O)c1ccc(O)cc1)N1CCC(Cc2ccccc2)CC1 (configuration not stated) ?
inactive

Tell me the assay call for CCOc1ccccc1C(N)=O please.
inactive

# lookup: test call for Cc1cccc(O)c1C
inactive

Recorded test call requested for CC(=O)O[C@]1(C(C)=O)CC[C@H]2[C@@H]3C[C@H](C)C4=CC(=O)CC[C@]4(C)[C@H]3CC[C@@]21C
inactive

// return assay outcome for CC[C@@H](N)CO
inactive

Fill in: this test's call for CCCCCC(=O)O[C@]1(C(C)=O)CC[C@H]2[C@@H]3CCC4=CC(=O)CC[C@]4(C)[C@H]3CC[C@@]21C is ___
active

Record lookup: outcome of this test for C#CC(C)(CC)OC(=O)c1ccccc1C(=O)O (configuration not stated) ?
inactive

State the result this test recorded for CC(C)(c1ccccc1)c1ccc(Nc2ccc(C(C)(C)c3ccccc3)cc2)cc1 .
inactive

What classification did Cc1cccc([N+](=O)[O-])c1C(=O)O end up with in this test?
inactive

Per the records of this test, what outcome belongs to O=C1OC2(c3ccc(O)cc3Oc3cc(O)ccc32)c2ccccc21 ?
inactive

How did this test come out for C=CC(=O)OCCCCCCCC ?
inactive

What was the test verdict on O=C(O)c1cc(Cl)cc(Cl)c1 ?
inactive
